assayProcedure: wild-type TIM10 yeast growth inhibition – luminescence, uHTS, counter-screen for tim10-1 yeast inhibitor project, primary screen (AID 463195);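 further: wild-type TIM10 isogenic control strain grown at permissive 25 °C; 0% = DMSO yeast wells and 100% = minimal medium wells without yeast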
statedConditions: S. cerevisiae TIM10 strain growth, BacTiter-Glo luminescence, 24 h; at 10 µM; hits give high values
Screen size: about 330,000 compounds; about 4,600 (1.4%) were called active. Only a selection was taken, and actives are over-represented in it overall.
# inhibition per entry
Quick note: give the figure in %, leave out the unit.

# annotated cases, reported inhibition shown
- molecule: "CC(C)CC(=O)NC(=S)Nc1ccc(F)cc1F"
  inhibition, %: 41.9
- molecule: "Cc1ccc2nc(N3CCN(C(=O)c4ccco4)CC3)sc2c1"
  inhibition, %: -6.8
- molecule: "O=C(O)c1ccc(N/N=C/c2cn(-c3ccccc3)nc2-c2cccs2)cc1"
  inhibition, %: 56.3
- molecule: "Cc1ccc(N2C(=O)CC(NCc3ccc4c(c3)OCO4)C2=O)cc1Cl (stereo unspecified)"
  inhibition, %: 9.87
- molecule: "Cc1c(NC(=O)C(C)OC(=O)c2c3c(nc4ccccc24)CCC(C)C3)c(=O)n(-c2ccccc2)n1C (stereo unspecified)"
  inhibition, %: -6.65
- molecule: "CCCCN(CC)C(=O)CN(C)S(=O)(=O)c1cccc2nsnc12"
  inhibition, %: -12.4
- molecule: "CN(C(=O)CN(CCO)CC(=O)N(C)C(C)(C)Cc1ccccc1)C(C)(C)Cc1ccccc1"
  inhibition, %: 15.9
- molecule: "COc1cccc(NC(=O)CN(C)C(=O)/C=C/c2cn(-c3ccccc3)nc2-c2cccs2)c1"
  inhibition, %: -5.41

inhibition recorded for this molecule, `C=CCN(C(=O)Cn1ncc2c1-c1cc(C)ccc1OC2)c1ccccc1` , is 16.6

inhibition recorded for this molecule, CSCCC(NC(=O)COc1ccccc1)C(=O)OCCOc1ccc(F)cc1 (stereo unspecified) , is -0.639

inhibition recorded for this molecule, `CC(C)CC(=O)NC(=S)Nc1cc(C(=O)O)ccc1Cl` , is -4.57

inhibition recorded for this molecule, `COc1ccc(Oc2coc3cc(OC(=O)c4cncc(Br)c4)ccc3c2=O)cc1` , is 22.3
